System: kochia
ASSAY PROCEDURE: Test C pre-/postemergence herbicide test
Type: in vivo, Kochia scoparia
SETUP CONDITIONS: Preemergence, 500 g ai/ha; scale 0 to 100, 0 no effect, 100 complete control
Source text: […]
Kindly supply the reported Kochia plant response rating values for the records listed here.

Fill blank: measured Kochia plant response rating of the compound C=CCn1nc(C(C)(C)C)cc1C(=O)Nc1cccc(C(=O)NCC)c1 is ____.
95

Fill blank: measured Kochia plant response rating of the compound CCCCOc1cccc(NC(=O)c2cc(C(C)(C)C)nn2CC)c1 is ____.
100

Fill blank: measured Kochia plant response rating of the compound CCNC(=O)c1cccc(NC(=O)c2cc(C(C)(C)C)nn2CC(F)(F)F)c1 is ____.
100

Fill blank: measured Kochia plant response rating of the compound CCn1nc(C(C)(C)C)cc1C(=O)Nc1cc(C(=O)N(C)C)ccn1 is ____.
100

Fill blank: measured Kochia plant response rating of the compound CCc1nc(C(C)(C)C)sc1C(=O)Nc1cccc(C(=O)N(CC)CC)c1 is ____.
90

Fill blank: measured Kochia plant response rating of the compound C=Cn1nc(C(C)(C)C)cc1C(=O)Nc1cccc(C(=O)N(CC)CC)c1 is ____.
100

Fill blank: measured Kochia plant response rating of the compound CCNC(=O)c1ccc(F)c(NC(=O)c2cn(C(C)(C)C)nc2CC)c1 is ____.
100

----------
Kindly supply the reported Wheat plant response rating values for the records listed here.
Test system: wheat
ASSAY PROCEDURE: Test B postemergence herbicide test
Type: in vivo, Triticum aestivum
Parameters: key: 0 = no effect, 100 = complete control
SETUP CONDITIONS: postemergence, 125 g ai/ha; scale 0 to 100

Fill blank: measured Wheat plant response rating of the molecule Cc1nn(C(C)(C)C)nc1C(=O)Nc1cccc(C(=O)N2CC=CC2)n1 is ____.
20

Fill blank: measured Wheat plant response rating of the molecule CCNC(=S)c1cccc(NC(=O)c2nn(C(C)(C)C)nc2C)c1 is ____.
10

Fill blank: measured Wheat plant response rating of the molecule CCN(C(C)=O)C(=O)c1ccc(F)c(NC(=O)c2cc(C(C)(C)C)nn2CC)c1 is ____.
0

Fill blank: measured Wheat plant response rating of the molecule CN(C)C(=O)c1cccc(NC(=O)c2nn(C(C)(C)C)nc2Br)c1 is ____.
20

----------
Kindly supply the reported Foxtail, Giant plant response rating (0 to 100 scale) values for the records listed here.
Tested on: giant foxtail
ASSAY PROCEDURE: Test B pre-/postemergence herbicide test
Assay type: in vivo, Setaria faberi
SETUP CONDITIONS: 125 g ai/ha; 0 = no effect, 100 = complete control; preemergence
Form rule: numeric answer, no unit written next to it.

Fill blank: measured Foxtail, Giant plant response rating (0 to 100 scale) of the compound CCN(CC)C(=O)c1cccc(NC(=O)c2sc(C(C)(C)C)nc2C)c1 [Compound 199] is ____.
10

Fill blank: measured Foxtail, Giant plant response rating (0 to 100 scale) of the compound CCN(CC)C(=O)c1cccc(NC(=O)c2nn(C(C)(C)C)cc2Cl)c1 [Compound 218] is ____.
0

Fill blank: measured Foxtail, Giant plant response rating (0 to 100 scale) of the compound CCn1nc(C(C)(C)C)cc1C(=O)Nc1cc(C(=O)N(C)OC)ccc1F [Compound 244] is ____.
80

Fill blank: measured Foxtail, Giant plant response rating (0 to 100 scale) of the compound CCc1nn(C(C)(C)C)cc1C(=O)Nc1cccc(C(=O)N(C)C)n1 [Compound 292] is ____.
0

Fill blank: measured Foxtail, Giant plant response rating (0 to 100 scale) of the compound CCc1nc(C(C)(C)C)sc1C(=O)Nc1cccc(C(=O)N(C)CC)c1 [Compound 229] is ____.
50

----------
Kindly supply the reported Wheat plant response rating values for the records listed here.
System: wheat
ASSAY PROCEDURE: Test B postemergence herbicide test
Assay type: in vivo, Triticum aestivum
Parameters: key: 0 = no effect, 100 = complete control
SETUP CONDITIONS: postemergence, 500 g ai/ha; scale 0 to 100, 0 is no effect, 100 is complete control
Form rule: numeric answer, no unit written next to it.

Fill blank: measured Wheat plant response rating of the compound CCN(CC)C(=O)c1cccc(NC(=O)c2cc(C(C)(C)C)nn2C)n1 is ____.
10

Fill blank: measured Wheat plant response rating of the compound CCn1nc(C(C)(C)C)cc1C(=O)Nc1ccnc(C(=O)N(C)C)c1 is ____.
30

Fill blank: measured Wheat plant response rating of the compound C=CCN(CC=C)C(=O)c1cncc(NC(=O)c2cc(C(C)(C)C)nn2CC)c1 is ____.
10

Fill blank: measured Wheat plant response rating of the compound CCc1nn(C(C)(C)C)cc1C(=O)Nc1cccc(C(=O)N(C)C)n1 is ____.
20

Fill blank: measured Wheat plant response rating of the compound C#CCNC(=O)c1cc(NC(=O)c2cc(C(C)(C)C)nn2CC)ccn1 is ____.
20

Fill blank: measured Wheat plant response rating of the compound CCNC(=O)c1cc(NC(=O)c2cc(C(C)(C)C)nn2CC)c(F)cc1F is ____.
20

Fill blank: measured Wheat plant response rating of the compound CCn1nc(C(C)(C)C)cc1C(=O)Nc1cc(OC(F)(F)F)ccc1F is ____.
10

Fill blank: measured Wheat plant response rating of the compound CCn1nc(C(C)(C)C)cc1C(=O)Nc1nc(C(=O)N2CC=CC2)ccc1F is ____.
30

Fill blank: measured Wheat plant response rating of the compound C#CCNC(=O)c1cncc(NC(=O)c2cc(C(C)(C)C)nn2CC)n1 is ____.
20

Fill blank: measured Wheat plant response rating of the compound CC(=NO)c1cccc(NC(=O)c2cc(C(C)(C)C)n[nH]2)c1 is ____.
0

Fill blank: measured Wheat plant response rating of the compound C#CCNC(=O)c1ccc(F)c(NC(=O)c2cc(C(C)(C)C)nn2CC)n1 is ____.
30

----------
Test system: morningglory
ASSAY PROCEDURE: Test C pre-/postemergence herbicide test
Assay type: in vivo, Ipomoea coccinea
SETUP CONDITIONS: Preemergence, 500 g ai/ha; scale 0 to 100, 0 no effect, 100 complete control
PROPERTY LABEL: Morningglory plant response rating

Fill blank: measured Morningglory plant response rating of the molecule CCNC(=O)c1cccc(NC(=O)c2cc(C(C)(C)C)nn2CC(F)(F)F)c1 is ____.
40

Fill blank: measured Morningglory plant response rating of the molecule CCN1CCc2c(NC(=O)c3cc(C(C)(C)C)nn3CC)cccc2C1=O is ____.
40

Fill blank: measured Morningglory plant response rating of the molecule C#CCNC(=O)c1cccc(NC(=O)c2cc(C(C)(C)C)nn2CC)n1 is ____.
0

Fill blank: measured Morningglory plant response rating of the molecule CCc1nc(C(C)(C)C)sc1C(=O)Nc1cccc(C(=O)N(CC)CC)c1 is ____.
50

Fill blank: measured Morningglory plant response rating of the molecule CCN(CC)C(=O)c1ccnc(NC(=O)c2cc(C(C)(C)C)nn2CC)c1 is ____.
15

----------
Kindly supply the reported Foxtail, Giant plant response rating values for the records listed here.
System: giant foxtail
ASSAY PROCEDURE: Test B pre-/postemergence herbicide test
Assay type: in vivo, Setaria faberi
SETUP CONDITIONS: Postemergence, 500 g ai/ha; scale 0 (no effect) to 100 (complete control)
Form rule: numeric answer, no unit written next to it.

Fill blank: measured Foxtail, Giant plant response rating of the compound CCc1nn(C(C)C)nc1C(=O)Nc1cccc(C(=S)N(C)C)c1 is ____.
20

Fill blank: measured Foxtail, Giant plant response rating of the compound CN(C)C(=O)c1cccc(NC(=O)c2nn(C(C)(C)C)nc2Br)c1 is ____.
40

Fill blank: measured Foxtail, Giant plant response rating of the compound Cc1nn(C(C)(C)C)nc1C(=O)Nc1cccc(C(=O)N(C)C)n1 is ____.
0

Fill blank: measured Foxtail, Giant plant response rating of the compound C=CCNC(=O)c1cccc(NC(=O)c2nn(C(C)(C)C)nc2C)n1 is ____.
20

----------
Kindly supply the reported Plant response rating, Crabgrass, Large values for the records listed here.
Test system: large crabgrass
ASSAY PROCEDURE: Test B pre-/postemergence herbicide test
Assay type: in vivo, Digitaria sanguinalis
SETUP CONDITIONS: preemergence, 125 g ai/ha; 0 to 100 scale, 0 is no effect, 100 is complete control
Form rule: numeric answer, no unit written next to it.

Fill blank: measured Plant response rating, Crabgrass, Large of the compound CCn1nc(C(C)(C)C)cc1C(=O)Nc1ccc(OC)c(C(=O)OC(C)C)c1 is ____.
50

Fill blank: measured Plant response rating, Crabgrass, Large of the compound CCOC(=O)c1cc(NC(=O)c2cc(C(C)(C)C)nn2CC)ccc1F is ____.
0

Fill blank: measured Plant response rating, Crabgrass, Large of the compound CC(=NO)c1cccc(NC(=O)c2cc(C(C)(C)C)nn2C)c1 is ____.
0

Fill blank: measured Plant response rating, Crabgrass, Large of the compound CCCn1nc(C(C)(C)C)cc1C(=O)Nc1cccc(C(C)=NO)c1 is ____.
100

Fill blank: measured Plant response rating, Crabgrass, Large of the compound CCOC(=O)c1cc(NC(=O)c2cc(C(C)(C)C)nn2CC)ccc1OCC is ____.
60

Fill blank: measured Plant response rating, Crabgrass, Large of the compound CC(=O)c1cccc(NC(=O)c2cc(C(C)(C)C)nn2CCF)c1 is ____.
90

Fill blank: measured Plant response rating, Crabgrass, Large of the compound CCn1nc(C(C)(C)C)cc1C(=O)Nc1cc(C(=O)OC(C)(C)C)ccc1F is ____.
0
